meta.source: PubChem BioAssay (NCI)

Tested on: PC-3 prostate
assay.summary: NCI tumour cell line growth inhibition, 48 h
reported.metric: TGI (µM)

[
  {
    "molecule": "COc1cc2c(c(OC)c1OC)-c1c(c3ccc([N+](=O)[O-])cc3c(=O)n1CCCN=[N+]=[N-])C2=O",
    "reported.metric": "TGI",
    "bound.sign": ">",
    "recorded.number": 100
  },
  {
    "molecule": "COc1ccc(/C=C2\\CN(Cc3cn(CCCNc4ccnc5cc(Cl)ccc45)nn3)C/C(=C\\c3ccc(OC)cc3)C2=O)cc1",
    "reported.metric": "TGI",
    "bound.sign": "=",
    "recorded.number": 17
  },
  {
    "molecule": "CCOC(=O)C1C(=O)C=C(c2cc(C)ccc2O)CC1c1cccc(Br)c1 (stereo not given)",
    "reported.metric": "TGI",
    "bound.sign": "=",
    "recorded.number": 40.4
  },
  {
    "molecule": "C[N+](C)([O-])Cc1cccc(NC(=O)c2ccc(C(=O)Nc3cccc(C[N+](C)(C)[O-])c3)cc2)c1",
    "reported.metric": "TGI",
    "bound.sign": ">",
    "recorded.number": 100
  },
  {
    "molecule": "COc1ccc2c(c1)CCC1C2CCC2(C)C1CC[C@@]2(O)CNC(=O)/C=C/c1ccc(O)c(O)c1 (stereo not given in full)",
    "reported.metric": "TGI",
    "bound.sign": "=",
    "recorded.number": 10.2
  },
  {
    "molecule": "O=S(=O)(CC#CCS(=O)(=O)c1ccccc1)c1ccccc1",
    "reported.metric": "TGI",
    "bound.sign": "=",
    "recorded.number": 22.3
  },
  {
    "molecule": "Clc1ccc(CCN2CCN(CCCc3ccccc3)CC2)cc1Cl",
    "reported.metric": "TGI",
    "bound.sign": "=",
    "recorded.number": 31.6
  },
  {
    "molecule": "Cn1cnc2nc(Cl)nc(Cl)c21",
    "reported.metric": "TGI",
    "bound.sign": "=",
    "recorded.number": 12.8
  },
  {
    "molecule": "CN(C)CCCN1c2ccc3ccccc3c2Sc2cccc(Cl)c21",
    "reported.metric": "TGI",
    "bound.sign": "=",
    "recorded.number": 11.8
  },
  {
    "molecule": "O=C1c2c(ccc3c2CCCC3)CC12Cc1ccccc1C2",
    "reported.metric": "TGI",
    "bound.sign": ">",
    "recorded.number": 100
  }
]

###

Tested on: LOX IMVI melanoma
assay.summary: NCI tumour cell line growth inhibition, 48 h

[
  {
    "compound": "c1ccc(C2(c3cc4ccccc4[nH]3)OCCO2)cc1",
    "TGI": "> 100 µM"
  },
  {
    "compound": "O=C(Cc1nc2ccccc2s1)C(=O)Nc1ccccc1C(F)(F)F",
    "TGI": "> 100 µM"
  },
  {
    "compound": "CC(C)(C)C(=O)C(C#N)C(=O)C(C)(C)C",
    "TGI": "> 100 µM"
  },
  {
    "compound": "Cn1cnc2nc(Cl)nc(Cl)c21",
    "TGI": "16.8 µM"
  },
  {
    "compound": "CCOC(=O)C1(C/C=C\\CBr)CCCCCCC1=O (configuration not stated)",
    "TGI": "> 100 µM"
  },
  {
    "compound": "COc1cc(OC)cc(N(C)Cc2cnc3nc(N)nc(N)c3c2C)c1",
    "TGI": "> 100 µM"
  },
  {
    "compound": "CCCCc1ccc(C(N)=O)nc1",
    "TGI": "> 100 µM"
  },
  {
    "compound": "NC(=O)NOCC1NC(=O)NC1=O (configuration not stated)",
    "TGI": "> 100 µM"
  },
  {
    "compound": "O=C(C(=O)n1ccc2ccccc21)c1c[nH]c2ccccc12",
    "TGI": "> 10 µM"
  },
  {
    "compound": "Nc1cc(N)c2nc(-c3ccccc3)c(Sc3ccc(F)cc3)nc2c1",
    "TGI": "41.2 µM"
  },
  {
    "compound": "CN(C)c1ccc(/C=C/C(=O)c2ccc(Nc3nc(Nc4ccc(F)cc4)nc(Nc4ccc(Cl)cc4)n3)cc2)cc1",
    "TGI": "47.2 µM"
  },
  {
    "compound": "CCN(CC)CCCC(C)NC(=S)N/N=C(\\C)c1ccccn1 (configuration not stated)",
    "TGI": "> 100 µM"
  },
  {
    "compound": "Cc1ccc(S(=O)(=O)c2ccccn2)cc1",
    "TGI": "> 100 µM"
  },
  {
    "compound": "C[C@H]1C(=O)C2=C[C@H]1CCC(=O)[C@]1(C)CCCC(C)(C)[C@H]1C[C@H]2O",
    "TGI": "35.4 µM"
  },
  {
    "compound": "Cc1nn(C(=O)CC(=O)Nc2ccccc2Cl)c(C)c1N=Nc1ccccc1Cl",
    "TGI": "> 100 µM"
  },
  {
    "compound": "O=C(Nc1cccc(Cl)c1)c1cc2cc(N=Nc3ccc(Br)cc3)ccc2oc1=O",
    "TGI": "45.1 µM"
  },
  {
    "compound": "Nc1nc(N)c2nn(-c3ccc(C(=O)O)cc3)nc2n1",
    "TGI": "> 100 µM"
  },
  {
    "compound": "Nc1cc2[nH]c(=O)c3cc(Cl)ccc3c2cc1Cl",
    "TGI": "53.6 µM"
  },
  {
    "compound": "N#CC1=C(N)Oc2c(ccc3ccccc23)C1c1ccccc1Cl (configuration not stated)",
    "TGI": "12.1 µM"
  },
  {
    "compound": "CCCCCCc1cc2cc(C(=O)Nc3cccc(C(F)(F)F)c3)c(=N)oc2cc1O",
    "TGI": "3.09 µM"
  },
  {
    "compound": "Cn1c(N)c(N=Nc2ccc(S(N)(=O)=O)cc2)c(=O)n(C)c1=O",
    "TGI": "> 100 µM"
  },
  {
    "compound": "CCN1CCc2sc3[nH]c(=S)n(C)c(=O)c3c2C1",
    "TGI": "> 100 µM"
  }
]
